Every entry's value here was drawn from patent US20220298257A1.

Reported values of Kd for individual entries
Subject of test: T1, human CD22-Fc fusion protein (human, UniProt P20273 20-687, limits assumed)
T1 construct: also called recombinant CD22-Fc fusion protein; not shown: Fc part
T1 sequence (looked up): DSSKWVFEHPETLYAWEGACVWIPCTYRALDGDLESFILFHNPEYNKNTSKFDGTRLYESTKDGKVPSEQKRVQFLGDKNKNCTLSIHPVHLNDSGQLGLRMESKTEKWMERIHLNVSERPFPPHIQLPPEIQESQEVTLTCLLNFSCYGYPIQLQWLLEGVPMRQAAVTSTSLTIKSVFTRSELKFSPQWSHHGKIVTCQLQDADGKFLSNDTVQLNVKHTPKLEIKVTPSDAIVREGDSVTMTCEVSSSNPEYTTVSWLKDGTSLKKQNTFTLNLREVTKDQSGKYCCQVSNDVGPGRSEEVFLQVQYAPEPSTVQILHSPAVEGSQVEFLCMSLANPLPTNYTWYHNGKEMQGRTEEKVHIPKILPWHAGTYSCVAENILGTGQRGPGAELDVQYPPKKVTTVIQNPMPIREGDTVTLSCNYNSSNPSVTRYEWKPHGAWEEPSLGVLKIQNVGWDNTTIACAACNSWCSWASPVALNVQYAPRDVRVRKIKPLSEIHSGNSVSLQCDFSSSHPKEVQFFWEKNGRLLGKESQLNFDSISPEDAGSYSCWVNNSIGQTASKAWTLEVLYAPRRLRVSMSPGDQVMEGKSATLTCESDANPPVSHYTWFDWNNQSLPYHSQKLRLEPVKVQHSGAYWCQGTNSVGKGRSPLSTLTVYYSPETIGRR
Procedure summary: SPR Biacore T200; CD22-Fc captured on Protein G chip, scFv as analyte;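 also: run in 1×HBST buffer, with the response of reference flow cell 1 subtracted from the CD22 capture cell and kinetics fitted in Biacore T200 evaluation software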

Binder	Units symbol	Kd
EP160-G04 scFv (scFv, VH-VL orientation; not shown: C-terminal flag and 6xHIS tag) scFv: QVQLVQSGAEVKKPGASVKVSCKASGYTFSSYGITWVRQAPGQGLEWMGWISAYNGNTNYAQKFQGRVTLTTDTSTSIAYMELRSLTSDDTAVYYCATGGQEDYWGQGTLVTVSSGGGGSGGGGSGGGGSEIVMTQSPATLSVSPGERATLSCRASQSVSSNLAWYQQKPGQAPRLLIYDASTRATGIPARFSGSGSGTEFTLTISSLQSEDFAVYYCQQYHNWAPLTFGGGTKVGIK	nM	0.322
EP97-G05 scFv (scFv, VH-VL orientation; also called EP097-G05; not shown: C-terminal flag and 6xHIS tag) scFv: EVQLVQSGAEVKKPGASVKVSCKASGYTFTSYGISWVRQAPGQGLEWMGWISAYNGNTNYAQKLQGRVTMTTDTSTSTAYMELRSLRSDDTAVYYCARDYGDPSGDDYWGQGTLVTVSSGGGGSGGGGSGGGGSEIVLTQSPATLSVSPGEGVTLSCRASQSVSSNLAWYQQRPGQAPRLLIYGASIKATDVPDRFSGGGSGTDFTLSISNLQSEDFAVYYCQQYHTWPPVTFGGGTKVEIK	nM	0.166
EP35-C6 scFv (scFv, VH-VL orientation; also called EP35-C06; not shown: C-terminal flag and 6xHIS tag) scFv: QVQLVESGGGVVQPGGSLRLSCAASGFPFSRFGIHWVRQAPGKGLDWVAFIRTDGGSQHYADSVKGRFTISRDNSENMVYLQMNSLRVDDTALYYCAKDPPRVTGNTGYDYDWGQGVQVTVSSGGGGSGGGGSGGGGSDIVMTQSPDSLAVSLGERATINCKSSQSVLYSANNKNCLAWYQQKSGQPPKLLIYWASTRESGVPGRFSGSGSGTDFTLTISSLQAEDVAVYYCQQYYSPPRTFGQGTKLEIK	nM	15.8
